The measured values listed here are drawn from ChEMBL document CHEMBL3352483.

Examples of compounds with documented log10(IC50) follow.
Test system: U-251
Test: Antiproliferative activity against human U251 cells after 24 hrs by MTT assay
Type: functional, cell-based
Settings: U-251, 24 h
A difference of one corresponds to tenfold IC50; all values are log10 with IC50 in µM.

Input line: Endpoint output: log10(IC50) of COc1cc(OC)c(-c2coc3cc(OCc4ccccc4C)ccc3c2=O)cc1OC . Value?
Output line: 0.30

---

Tested on: HepG2
Assay: Antiproliferative activity against human HepG2 cells after 24 hrs by MTT assay
Format: functional, cell-based
Conditions: HepG2, 24 h
Examples of compounds with documented pIC50 follow.
Scale for pIC50: -log10 of concentration given in mol/L; no unit attached.

Input line: Endpoint output: pIC50 of COc1cc(OC)c(-c2coc3cc(OCc4ccc(Cl)cc4)ccc3c2=O)cc1OC . Value?
Output line: 6.03

Input line: Endpoint output: pIC50 of COc1ccc2c(=O)c(-c3cc(OC)c(OC)cc3OC)coc2c1 . Value?
Output line: 5.69
